Quick reference for pIC50 among some compounds
- TARGET OF ASSAY: NPFF2 receptor (Homo sapiens)
- METHOD: cAMP functional experiment, NPFF2 receptor (forskolin-induced cAMP accumulation)
pIC50: −log10 of the molar value. Bridge positions count the residues as written; N and C are the ends. Square brackets hold non-standard residues; d marks the D form. Peptide text beside a SMILES is read from it. NMeF = CN[C@@H](Cc1ccccc1)C(=O)O; dOrn = NCCC[C@@H](N)C(=O)O
MEASURED METRIC: pIC50

[[record]]
compound = "CN1C(=O)CNC(=O)[C@H](NC(=O)[C@@H](N)Cc2ccc(O)cc2)CCCCNC(=O)C[C@@H](C(=O)N2CCC[C@H]2C(=O)N[C@@H](CCC(N)=O)C(=O)N[C@@H](CCCNC(=N)N)C(=O)N[C@@H](Cc2ccccc2)C(N)=O)NC(=O)[C@@H]1Cc1ccccc1 [Compound 1] (H-Y[dK]G[NMeF]DPQRF-NH2; lactam 2-5)"
measured_metric = "pIC50"
numeric_readout = 7.30

[[record]]
compound = "CN1C(=O)CNC(=O)[C@H](NC(=O)[C@@H](N)Cc2ccc(O)cc2)CCCNC(=O)C[C@@H](C(=O)N2CCC[C@H]2C(=O)N[C@@H](CCC(N)=O)C(=O)N[C@@H](CCCNC(=N)N)C(=O)N[C@@H](Cc2ccccc2)C(N)=O)NC(=O)[C@@H]1Cc1ccccc1 [Compound 8] (H-Y[dOrn]G[NMeF]DPQRF-NH2; lactam 2-5)"
measured_metric = "pIC50"
numeric_readout = 6.88

[[record]]
compound = "CN1C(=O)CNC(=O)[C@@H](NC(=O)[C@@H](N)Cc2ccc(O)cc2)CCCCNC(=O)C[C@H](C(=O)N2CCC[C@H]2C(=O)N[C@@H](CCC(N)=O)C(=O)N[C@@H](CCCNC(=N)N)C(=O)N[C@@H](Cc2ccccc2)C(N)=O)NC(=O)[C@@H]1Cc1ccccc1 [Compound 4] (H-YKG[NMeF][dD]PQRF-NH2; lactam 2-5)"
measured_metric = "pIC50"
numeric_readout = 7.09


---

- TARGET OF ASSAY: NPFF2 receptor (Homo sapiens, UniProt Q9Y5X5)
- Sequence (Q9Y5X5 whole entry): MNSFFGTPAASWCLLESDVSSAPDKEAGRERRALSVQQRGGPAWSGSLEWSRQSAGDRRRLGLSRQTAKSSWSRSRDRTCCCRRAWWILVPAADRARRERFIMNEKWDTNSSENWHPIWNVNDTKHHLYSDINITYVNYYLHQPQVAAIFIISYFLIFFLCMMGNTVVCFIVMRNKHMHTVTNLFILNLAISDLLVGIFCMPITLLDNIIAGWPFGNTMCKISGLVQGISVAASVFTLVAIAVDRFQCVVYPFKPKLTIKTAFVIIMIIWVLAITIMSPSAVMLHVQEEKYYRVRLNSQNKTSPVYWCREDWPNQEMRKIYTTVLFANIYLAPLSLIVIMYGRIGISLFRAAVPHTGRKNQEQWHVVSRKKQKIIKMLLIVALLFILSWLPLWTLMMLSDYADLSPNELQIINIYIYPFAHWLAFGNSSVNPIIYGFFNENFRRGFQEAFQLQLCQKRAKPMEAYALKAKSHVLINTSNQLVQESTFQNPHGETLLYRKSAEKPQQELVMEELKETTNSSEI
- METHOD: cAMP functional experiment, NPFF2 receptor (forskolin-induced cAMP accumulation)
- Method: The agonistic activity of the cyclopeptide molecule of the present invention against Mu-opioid receptor, Delta-opioid receptor, Kappa-opioid receptor, NPFF1 receptor and NPFF2 receptor was evaluated by detecting the regulation of the cyclopeptide molecule of the present invention on the intracellular accumulation of cyclic adenosine monophosphate (cAMP) induced by Forskolin in HEK293 cells stably expressing these five receptors. […]
Bridge positions count the residues as written; N and C are the ends. Square brackets hold non-standard residues; d marks the D form. Peptide text beside a SMILES is read from it. NMeF = CN[C@@H](Cc1ccccc1)C(=O)O; dOrn = NCCC[C@@H](N)C(=O)O; dDap = NC[C@@H](N)C(=O)O
# label = criterion met if IC50 < 300 nM else criterion not met

[[record]]
molecule = "CN1C(=O)CNC(=O)[C@H](NC(=O)[C@@H](N)Cc2ccc(O)cc2)CCCCNC(=O)C[C@@H](C(=O)NCC(=O)N[C@@H](CCC(N)=O)C(=O)N[C@@H](CCCNC(=N)N)C(=O)N[C@@H](Cc2ccccc2)C(N)=O)NC(=O)[C@@H]1Cc1ccccc1 [Compound 12] (H-Y[dK]G[NMeF]DGQRF-NH2; lactam 2-5)"
cat = "criterion met"

[[record]]
molecule = "CN1C(=O)CNC(=O)[C@@H](NC(=O)[C@@H](N)Cc2ccc(O)cc2)CCCCNC(=O)C[C@@H](C(=O)N2CCC[C@H]2C(=O)N[C@@H](CCC(N)=O)C(=O)N[C@@H](CCCNC(=N)N)C(=O)N[C@@H](Cc2ccccc2)C(N)=O)NC(=O)[C@@H]1Cc1ccccc1 [Compound 3] (H-YKG[NMeF]DPQRF-NH2; lactam 2-5)"
cat = "criterion met"

[[record]]
molecule = "CN1C(=O)CNC(=O)[C@H](NC(=O)[C@@H](N)Cc2ccc(O)cc2)CCCNC(=O)CC[C@@H](C(=O)N2CCC[C@H]2C(=O)N[C@@H](CCC(N)=O)C(=O)N[C@@H](CCCNC(=N)N)C(=O)N[C@@H](Cc2ccccc2)C(N)=O)NC(=O)[C@@H]1Cc1ccccc1 [Compound 11] (H-Y[dOrn]G[NMeF]EPQRF-NH2; lactam 2-5)"
cat = "criterion not met"

[[record]]
molecule = "CN1C(=O)CNC(=O)[C@H](NC(=O)[C@@H](N)Cc2ccc(O)cc2)CNC(=O)C[C@@H](C(=O)N2CCC[C@H]2C(=O)N[C@@H](CCC(N)=O)C(=O)N[C@@H](CCCNC(=N)N)C(=O)N[C@@H](Cc2ccccc2)C(N)=O)NC(=O)[C@@H]1Cc1ccccc1 [Compound 10] (H-Y[dDap]G[NMeF]DPQRF-NH2; lactam 2-5)"
cat = "criterion not met"

[[record]]
molecule = "CN1C(=O)CNC(=O)[C@H](NC(=O)[C@@H](N)Cc2ccc(O)cc2)CCCCNC(=O)C[C@H](C(=O)N2CCC[C@H]2C(=O)N[C@@H](CCC(N)=O)C(=O)N[C@@H](CCCNC(=N)N)C(=O)N[C@@H](Cc2ccccc2)C(N)=O)NC(=O)[C@@H]1Cc1ccccc1 [Compound 5] (H-Y[dK]G[NMeF][dD]PQRF-NH2; lactam 2-5)"
cat = "criterion met"

